# EXPERIMENT_SUMMARY: self-splicing fitness, log relative to wild type (ln ratio); higher = more splicing; Tetrahymena group I intron in knt gene, E. coli kanamycin selection, DiMSum; sequences stand for … in CUCUCU…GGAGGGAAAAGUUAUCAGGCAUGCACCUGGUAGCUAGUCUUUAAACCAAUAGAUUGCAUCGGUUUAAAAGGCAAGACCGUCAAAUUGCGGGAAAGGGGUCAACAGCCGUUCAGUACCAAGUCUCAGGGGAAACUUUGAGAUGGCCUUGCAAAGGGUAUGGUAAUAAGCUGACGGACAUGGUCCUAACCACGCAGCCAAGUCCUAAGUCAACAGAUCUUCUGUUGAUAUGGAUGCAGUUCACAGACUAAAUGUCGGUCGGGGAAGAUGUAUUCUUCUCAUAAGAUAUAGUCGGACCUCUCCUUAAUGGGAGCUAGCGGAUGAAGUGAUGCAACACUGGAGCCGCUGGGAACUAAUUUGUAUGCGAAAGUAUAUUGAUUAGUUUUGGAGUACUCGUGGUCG;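 note: selection with 25 µg/mL kanamycin versus none on LB agar overnight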
# TEST_CONDITIONS: 37 °C
READOUT_KIND: self-splicing fitness (ln)
Lab note: jot down the number only; don't add units.

Illustrative cases are given below, each with its answer.
Can you share its self-splicing fitness (ln)? I mean this sequence: "GGAUAGCAAUAUUACGUUGC"
-2.2

Can you share its self-splicing fitness (ln)? I mean this sequence: "GAUAAGCAAUAUUACGAUAC"
-1.63

Can you share its self-splicing fitness (ln)? I mean this sequence: "AGUAAGCAAUAUUACGCAAA"
-1.46

New cases:
Can you share its self-splicing fitness (ln)? I mean this sequence: "UACAAGCAAUAUUACGUAGU"
-2.18

Can you share its self-splicing fitness (ln)? I mean this sequence: "AGCCAGCAAUAUUACGAGAU"
-2.28

Can you share its self-splicing fitness (ln)? I mean this sequence: "UUAAAGCAAUAUUACGUGUA"
0.0738

Can you share its self-splicing fitness (ln)? I mean this sequence: "CCAUAGCAAUAUUACGGACG"
-1.21

Can you share its self-splicing fitness (ln)? I mean this sequence: "CUUGAGCAAUAUUACGCGUA"
-2.31

Can you share its self-splicing fitness (ln)? I mean this sequence: "GGCAAGCAAUAUUACGUGAA"
0.184

Can you share its self-splicing fitness (ln)? I mean this sequence: "GACAAGCAAUAUUACGCACG"
-1.07

Can you share its self-splicing fitness (ln)? I mean this sequence: "GCCGAGCAAUAUUACGUAAG"
-1.09

* * *

# EXPERIMENT_SUMMARY: self-splicing fitness, log relative to wild type (ln ratio); higher = more splicing; Tetrahymena group I intron in knt gene, E. coli kanamycin selection, DiMSum; sequences stand for … in CUCUCU…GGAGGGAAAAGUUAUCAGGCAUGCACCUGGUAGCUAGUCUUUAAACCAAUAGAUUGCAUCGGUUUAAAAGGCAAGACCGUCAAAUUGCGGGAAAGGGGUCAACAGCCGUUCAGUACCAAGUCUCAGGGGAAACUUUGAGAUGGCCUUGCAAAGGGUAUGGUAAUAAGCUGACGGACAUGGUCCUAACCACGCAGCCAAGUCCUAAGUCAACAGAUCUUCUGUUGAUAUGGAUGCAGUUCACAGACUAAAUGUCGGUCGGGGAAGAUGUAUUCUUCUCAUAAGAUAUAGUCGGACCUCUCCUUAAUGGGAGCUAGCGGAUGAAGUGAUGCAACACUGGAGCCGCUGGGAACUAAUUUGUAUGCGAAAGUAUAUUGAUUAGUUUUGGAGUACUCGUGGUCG
# TEST_CONDITIONS: 30 °C
Label rule, in plain words: self-splicing fitness (ln) of -3 and up is label 1, under -3 is label 0.

Worked examples, 4 sequences total:
I'd appreciate it if you could say whether "UUUAAGCAAUAUUACGCGGG" has self-splicing fitness (ln) at least equal to -3.
label 1

I'd appreciate it if you could say whether "CUGUAGCAAUAUUACGCCAC" has self-splicing fitness (ln) at least equal to -3.
label 1

I'd appreciate it if you could say whether "ACCCAGCAAUAUUACGAUGC" has self-splicing fitness (ln) at least equal to -3.
label 1

I'd appreciate it if you could say whether "UAGGAGCAAUAUUACGAUUU" has self-splicing fitness (ln) at least equal to -3.
label 1

New cases:
I'd appreciate it if you could say whether "ACGCAGCAAUAUUACGCGAC" has self-splicing fitness (ln) at least equal to -3.
label 1

I'd appreciate it if you could say whether "UGACAGCAAUAUUACGACGC" has self-splicing fitness (ln) at least equal to -3.
label 1

I'd appreciate it if you could say whether "UGCUAGCAAUAUUACGUUUG" has self-splicing fitness (ln) at least equal to -3.
label 1

I'd appreciate it if you could say whether "GACCAGCAAUAUUACGCACC" has self-splicing fitness (ln) at least equal to -3.
label 1

I'd appreciate it if you could say whether "UAUCAGCAAUAUUACGUAUU" has self-splicing fitness (ln) at least equal to -3.
label 1

I'd appreciate it if you could say whether "ACUUAGCAAUAUUACGCUAC" has self-splicing fitness (ln) at least equal to -3.
label 1
